Every entry's value here was drawn from ChEMBL document CHEMBL4321812.

target: NUAK family SNF1-like kinase 2 (Homo sapiens, UniProt Q9H093); assay: Binding affinity to recombinant full-length N-terminal His-FLAG-tagged NUAK2 (unknown origin) expressed in baculovirus infected Sf9 insect cells incubated for 1 hr by TR-FRET assay
Sequence (Q9H093 whole entry): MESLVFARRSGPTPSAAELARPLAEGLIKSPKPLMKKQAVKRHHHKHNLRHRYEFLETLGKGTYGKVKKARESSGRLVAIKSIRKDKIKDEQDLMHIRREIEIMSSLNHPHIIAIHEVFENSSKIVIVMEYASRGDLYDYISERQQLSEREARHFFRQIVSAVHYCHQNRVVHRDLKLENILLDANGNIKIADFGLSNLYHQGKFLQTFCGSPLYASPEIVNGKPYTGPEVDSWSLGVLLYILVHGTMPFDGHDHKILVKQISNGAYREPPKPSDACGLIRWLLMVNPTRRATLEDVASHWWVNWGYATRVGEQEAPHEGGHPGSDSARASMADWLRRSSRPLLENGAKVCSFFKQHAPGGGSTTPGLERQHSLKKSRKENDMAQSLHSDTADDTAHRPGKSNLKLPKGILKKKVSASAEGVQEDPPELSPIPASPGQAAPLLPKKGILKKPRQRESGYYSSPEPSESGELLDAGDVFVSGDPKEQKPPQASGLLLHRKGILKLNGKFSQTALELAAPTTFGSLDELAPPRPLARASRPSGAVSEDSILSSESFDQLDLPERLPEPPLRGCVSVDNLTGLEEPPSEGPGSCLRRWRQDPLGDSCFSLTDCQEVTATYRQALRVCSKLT

structure.notation	unit.symbol	Kd
CO[C@@H]1[C@H](N(C)CCOCCOCCOCCNC(=O)CCC2=[N+]3C(=Cc4c(C)cc(C)n4[B-]3(F)F)C=C2)C[C@H]2O[C@]1(C)n1c3ccccc3c3c4c(c5c6ccccc6n2c5c31)C(=O)NC4	nM	11
CO[C@@H]1[C@H](NCCOCCOCCOCCNC(=O)CCC2=[N+]3C(=Cc4c(C)cc(C)n4[B-]3(F)F)C=C2)C[C@H]2O[C@]1(C)n1c3ccccc3c3c4c(c5c6ccccc6n2c5c31)C(=O)NC4	nM	10
